# Tested on: Italian ryegrass (Lolium multiflorum)
# assay-explanation: Test B pre-/postemergence plant response
# Assay type: in vivo
# condition-label: Preemergence; 8 g ai/ha; scale 0 to 100
# key: entry, value: Ryegrass, Italian plant response rating

# structure-smiles, Ryegrass, Italian plant response rating
rows = [
    ("Cc1cn(-c2ccc(Cl)cc2)nc1-c1c(O)cnn(C)c1=O", 0),
    ("Cc1nn(C)c(=O)c(-n2nc(-c3ccc(C(F)(F)F)cc3)cc2C)c1O", 0),
    ("CCc1cc(-c2ccc(F)cc2)nn1-c1c(O)cnn(C)c1=O", 50),
    ("Cc1cc(-c2ccc(Cl)cc2)nn1-c1c(OS(=O)(=O)c2ccccc2[N+](=O)[O-])cnn(C)c1=O", 100),
]

---

# System: soybean (Glycine max)
# assay-explanation: Test B pre-/postemergence plant response
# Type: in vivo
# condition-label: Postemergence, 62 g ai/ha; scale 0 to 100, 0 no effect, 100 complete control

# molecule, Plant response rating, Soybean
rows = [
    ("CCc1cc(-c2ccc(C(F)(F)F)cc2)nn1-c1c(O)cnn(CC)c1=O [Compound 67]", 15),
    ("Cc1cc(-c2ccc(Cl)cc2)nn1-c1c(OC(=S)N(C)C)cnn(C)c1=O [Compound 69]", 20),
    ("CCc1cc(-c2ccc(Cl)cc2)nn1-c1c(OC(=O)C(C)(C)C)cnn(C)c1=O [Compound 40]", 0),
    ("Cn1ncc(O)c(-c2nn(-c3ccc(Cl)cc3)cc2Cl)c1=O [Compound 28]", 20),
    ("Cc1cc(-c2ccc(Cl)cc2)nn1-c1c(OC(=O)C(C)C)cnn(C)c1=O [Compound 34]", 0),
    ("Cc1nn(C)c(=O)c(-n2nc(-c3ccc(Br)cc3)cc2C)c1O [Compound 81]", 20),
    ("CCc1cc(-c2ccc(Cl)cc2)nn1-c1c(OS(C)(=O)=O)cnn(C)c1=O [Compound 39]", 0),
]

---

Plant response rating, Blackgrass by entry:
# System: blackgrass (Alopecurus myosuroides)
# assay-explanation: Test A pre-/postemergence plant response
# Assay type: in vivo
# condition-label: Postemergence, 31 g ai/ha; 0 to 100 scale (0 no effect, 100 complete control)

# structure-smiles, Plant response rating, Blackgrass
rows = [
    ("Cc1c(Br)c(-c2ccc(Br)cc2)nn1-c1c(O)cnn(C)c1=O", 0),
    ("CCc1cc(-c2ccc(C(F)(F)F)cc2)nn1-c1c(OC(=O)C2CCCCC2)cnn(C)c1=O", 70),
    ("Cc1cc(-c2ccc(Cl)cc2)nn1-c1c(OC(=S)N(C)C)cnn(C)c1=O", 10),
    ("COc1nn(C)c(=O)c(-n2nc(-c3ccc(Br)cc3)cc2C)c1O", 90),
    ("Cc1cc(-c2ccc(Br)cc2)nn1-c1c(O)cn[nH]c1=O", 90),
    ("CCc1cc(-c2ccc(C(F)(F)F)cc2)nn1-c1c(OC(=O)c2ccc(Cl)nc2)cnn(C)c1=O", 80),
    ("Cn1ncc(O)c(-c2nn(-c3ccc(C(F)(F)F)cc3)cc2Cl)c1=O", 10),
    ("COCc1cc(-c2ccc(Br)cc2)nn1-c1c(O)cnn(C)c1=O", 0),
    ("Cc1cc(-c2ccc(Br)cc2)nn1-c1c(OC(=O)C2CC2)cnn(C(=O)C2CC2)c1=O", 30),
]
